test system: 138582-337-R-J1-PDC complex spheroid viability; assay: Anticancer human tumor 138582-337-R-J1-PDC patient-derived Merkel cell tumor cell line growth inhibition; conditions: second compound 1 µM; first compound 0.316 µM; hits give low values;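 further: spheroids exposed to agents for 7 days; 100% = DMSO vehicle control viability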
Attribute: viability, T/C
Answer with a number only, understood to be in %.

Nc1ncn(C2CC(O)C(CO)O2)c(=O)n1 (centres undefined) + NC1CC1c1ccc(-c2cccc(O)c2)cc1 | 83
O=C(C=Cn1cnc(-c2cc(C(F)(F)F)cc(C(F)(F)F)c2)n1)NNc1cnccn1 + NC1CCC(NC2CC2c2ccccc2)CC1 | 21.6
Nc1ncn(C2CC(O)C(CO)O2)c(=O)n1 (centres undefined) + NC1CCC(NC2CC2c2ccccc2)CC1 | 83.2

State the recorded viability, T/C for this entry: CC(C)c1c(-c2ccccc2)nc2c(C#N)c[nH]n2c1=O + NC1CC1c1ccc(-c2cccc(O)c2)cc1
82
